System: MDA-MB-231 (human breast cancer)
Assay: MTT cytotoxicity assay, MDA-MB-231
Assay type: cell-based
Conditions: Homo sapiens, MDA-MB-231 cells, 50% cell growth inhibition after 72 h of drug exposure
measurementKind: IC50 (µM)
A number alone suffices; assume µM.

Request: Output IC50 of C[C@@H]1CC[C@H]2[C@@H](C)C(OCCOc3ccc(/C=C/S(=O)(=O)Nc4c(Cl)cccc4Cl)cc3)O[C@@H]3O[C@@]4(C)CC[C@@H]1[C@]32OO4 (some centres unmarked)
Result: 1.07

Request: Give the reported IC50 for this molecule. C[C@@H]1CC[C@H]2[C@@H](C)C(OCCOc3ccc(/C=C/S(=O)(=O)Nc4ccc(Cl)cc4)cc3)O[C@@H]3O[C@@]4(C)CC[C@@H]1[C@]32OO4 (some centres unmarked)
Result: 1.04

Request: Hello, please tell me recorded IC50 for this one: Cc1ccc(F)c(NS(=O)(=O)/C=C/c2ccc(OCCOC3O[C@@H]4O[C@@]5(C)CC[C@H]6[C@H](C)CC[C@@H]([C@H]3C)[C@@]46OO5)cc2)c1 (some centres unmarked)
Result: 1.27

Request: Annotate the molecule C[C@@H]1CC[C@H]2[C@@H](C)C(OCCNC(=O)c3ccc(COc4ccc(/C=C/S(=O)(=O)Nc5c(Cl)cccc5Cl)cc4)cc3)O[C@@H]3O[C@@]4(C)CC[C@@H]1[C@]32OO4 (some centres unmarked) with its measured IC50.
Result: 0.88

Request: Consider the molecule Cc1ccccc1NS(=O)(=O)/C=C/c1ccc(OCCOC2O[C@@H]3O[C@@]4(C)CC[C@H]5[C@H](C)CC[C@@H]([C@H]2C)[C@@]35OO4)cc1 (some centres unmarked) and give its recorded IC50.
Result: 1.64

----------
Tested on: MDA-MB-231 (human breast cancer)
Experiment: MTT cytotoxicity assay, MDA-MB-231
Format: cell-based
Settings: Homo sapiens, MDA-MB-231 cells, 50% cell growth inhibition after 72 h of drug exposure
measurementKind: IC50 (µM)
# output: bare number, implied unit µM

Request: Return IC50 for the following molecule: C[C@@H]1CC[C@H]2[C@@H](C)C(OCCOc3ccc(/C=C/S(=O)(=O)Nc4ccccc4)cc3)O[C@@H]3O[C@@]4(C)CC[C@@H]1[C@]32OO4 (some centres unmarked) [Compound 3a]
Result: 2

Request: Tell me IC50 reported for C[C@@H]1CC[C@H]2[C@@H](C)C(OCCOc3ccc(/C=C/S(=O)(=O)Nc4ccc(OC(F)(F)F)cc4)cc3)O[C@@H]3O[C@@]4(C)CC[C@@H]1[C@]32OO4 (some centres unmarked) [Compound 3c]
Result: 0.39

Request: # return recorded IC50 for input C[C@@H]1CC[C@H]2[C@@H](C)C(OCCNC(=O)c3ccc(COc4ccc(/C=C/S(=O)(=O)Nc5ccc(F)c(C(F)(F)F)c5)cc4)cc3)O[C@@H]3O[C@@]4(C)CC[C@@H]1[C@]32OO4 (some centres unmarked) [Compound 6j]
Result: 1.05

Request: Indicate its recorded IC50; the molecule in question is Cc1ccccc1NS(=O)(=O)/C=C/c1ccc(OCc2ccc(C(=O)NCCOC3O[C@@H]4O[C@@]5(C)CC[C@H]6[C@H](C)CC[C@@H]([C@H]3C)[C@@]46OO5)cc2)cc1 (some centres unmarked) [Compound 6e]
Result: 2.1

Request: Please supply the value of reported IC50 for the item C[C@@H]1CC[C@H]2[C@@H](C)C(OCCNC(=O)c3ccc(COc4ccc(/C=C/S(=O)(=O)Nc5ccc(Cl)cc5)cc4)cc3)O[C@@H]3O[C@@]4(C)CC[C@@H]1[C@]32OO4 (some centres unmarked) [Compound 6f]
Result: 2.38
